Hey, just so you know, these numbers are from PubChem BioAssay (NCI).

# Tested on: PC-3 prostate
# Assay Notes: NCI tumour cell line growth inhibition, 48 h
Parameter: TGI (µM)
Quick reminder: number only, in µM, skip the unit.

In [3]: df
Out[3]:
                                   compound  recorded_value
0  COc1ccc(C2=Nc3c/c(=C\c4c(O)[nH]c5ccc(Cl)cc45)ccc3=N2)cc1               4

Data request: So what's the measured TGI for this one? COc1ccc2c3c(c4ccccc4cc13)C(=O)N(CCN(C)CCN)C2=O
Data returned: 1.93

Data request: So what's the measured TGI for this one? CN[C@@H]1C[C@H]2O[C@@](C)([C@@H]1OC)n1c3ccccc3c3c4c(c5c6ccccc6n2c5c31)C(=O)N[C@H]4O
Data returned: 1.14
